Values were extracted from patent US20250195521A1.

SUBJECT_OF_TEST: KRAS G12D (Homo sapiens (Human), UniProt P01116+P62937, G12D)
Sequence (P01116 other isoform, or with tags, fused parts or gaps G12D): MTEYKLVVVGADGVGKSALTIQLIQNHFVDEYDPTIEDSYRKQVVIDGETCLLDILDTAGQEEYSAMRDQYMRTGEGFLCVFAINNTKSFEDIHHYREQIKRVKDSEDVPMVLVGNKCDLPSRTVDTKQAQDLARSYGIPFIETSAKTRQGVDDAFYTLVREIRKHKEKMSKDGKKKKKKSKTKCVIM
Sequence (P62937 whole entry): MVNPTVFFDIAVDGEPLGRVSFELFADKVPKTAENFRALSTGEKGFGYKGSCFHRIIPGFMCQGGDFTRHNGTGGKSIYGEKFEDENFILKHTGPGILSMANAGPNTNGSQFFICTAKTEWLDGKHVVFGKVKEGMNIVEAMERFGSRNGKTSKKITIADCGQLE
EXPERIMENTAL_PROTOCOL: Ras-Raf disruption/FRET/MOA assay (BRAF RBD, Cyclophilin A)
Format: biochemical
SETTINGS: read-out: KRAS G12D FRET IC50
pIC50: −log10 of the molar value.
Entries and their pIC50 values follow.

MOLECULE	pIC50
CCn1c(-c2cccnc2[C@H](C)OC)c2c3cc(ccc31)-c1csc(n1)C[C@H](NC(=O)[C@H](C(C)C)N(C)C(=O)N1CCN3CCOCC3C1)C(=O)N1CCC[C@H](N1)C(=O)OCC(C)(C)C2 (some centres unmarked)	5.00 to 6.00
CCn1c(-c2cnccc2COC)c2c3cc(ccc31)-c1cc(O)cc(c1)C[C@H](NC(=O)[C@H](C(C)C)N(C)C(=O)[C@@H](C)O)C(=O)N1CCC[C@H](N1)C(=O)OCC(C)(C)C2	5.00 to 6.00

Tested system KRAS G12D (Homo sapiens (Human), UniProt P01116+P62937, G12D); pIC50 recorded for "CCn1c(-c2cccnc2[C@H](C)OC)c2c3cc(ccc31)-c1cc(O)cc(c1)C[C@H](NC(=O)[C@H](C(C)C)N(C)C(=O)[C@]1(F)CCN(C(=O)OC)C1)C(=O)N1CCC[C@H](N1)C(=O)OCC(C)(C)C2" was 6.00 to 7.00

Tested system KRAS G12D (Homo sapiens (Human), UniProt P01116+P62937, G12D); pIC50 recorded for "CCn1c(-c2cccnc2[C@H](C)OC)c2c3cc(ccc31)-c1csc(n1)[C@@H](OCC1CCN(C)CC1)[C@H](NC(=O)[C@H]1C[C@@H]1C)C(=O)N1CCC[C@H](N1)C(=O)OCC(C)(C)C2" was 5.00 to 6.00

Tested system KRAS G12D (Homo sapiens (Human), UniProt P01116+P62937, G12D); pIC50 recorded for "CCn1c(-c2cccnc2[C@H](C)OC)c2c3cc(ccc31)-c1csc(n1)C[C@H](NC(=O)[C@H](C(C)C)N(C)C(=O)N1CCCC[C@H](N(C)C)C1)C(=O)N1CCC[C@H](N1)C(=O)OCC(C)(C)C2" was 6.00 to 7.00
